# Test system: Serine/threonine-protein kinase mTOR (Homo sapiens, UniProt P42345)
# Assay remarks: Inhibition of mTOR (unknown origin) at 100 nM by kinase profiling assay relative to control
Class 1 (yes): inhibition at least 50%. Class 0 (no): inhibition below 50%.

Could you please find out whether CC(C)c1cc(C(=O)N2CCc3c(sc4nc(N5CCOCC5)nc(N5CCN(C)CC5)c34)C2)c(O)cc1O has inhibition that meets 50% or exceeds it?
0 (no)

Does the reported inhibition for COc1ccc(-c2ccc3c(N4CCOC[C@@H]4C)nc(N4CCOC[C@@H]4C)nc3n2)cc1CO fall at or above the 50% mark?
1 (yes)

Decide: inhibition of CC(C)c1cc(C(=O)N2CCc3c(sc4nc(N5CCOC(F)(F)C5)nc(N5CCOCC5)c34)C2)c(O)cc1O >= 50%?
1 (yes)

Determine whether this molecule has inhibition no lower than 50%: CC(C)c1cc(C(=O)N2CCc3c(sc4nc(N5CCCC5)nc(N5CCOCC5)c34)C2)c(O)cc1O
1 (yes)

Determine whether measured inhibition meets or exceeds 50% for CC(C)c1cc(C(=O)N2CCc3c(sc4nc(-c5ccc(NC(=O)Nc6ccc(C(F)(F)F)cc6)cc5)nc(N5CCOCC5)c34)C2)c(O)cc1O
1 (yes)

Hi team, for CC(C)c1cc(C(=O)N2CCc3c(sc4nc(N5CCOCC5)nc(NCCN5CCOCC5)c34)C2)c(O)cc1O , is the recorded inhibition at or above 50%?
0 (no)

Check if inhibition >= 50% (inclusive). Item: Cc1ccc(NC(=O)Nc2ccc(-c3nc(N4CCOCC4)c4c5c(sc4n3)CN(C(=O)c3cc(C(C)C)c(O)cc3O)CC5)cc2)cc1
1 (yes)

Would you say CC(C)c1cc(C(=O)N2CCc3c(sc4nc(-c5ccc(NC(=O)Nc6cc(Cl)cc(Cl)c6)cc5)nc(N5CCOCC5)c34)C2)c(O)cc1O shows inhibition at minimum 50%?
1 (yes)

Hello, I need to know if CC(C)c1cc(C(=O)N2CCc3c(sc4nc(-c5ccc(NC(=O)Nc6cccc(C(F)(F)F)c6)cc5)nc(N5CCOCC5)c34)C2)c(O)cc1O has measured inhibition not below 50%. Thanks!
1 (yes)

Exam item: decide whether the reported inhibition for CC(C)c1cc(C(=O)N2CCc3c(sc4nc(N5CCOCC5)nc(N5CCC(F)(F)CC5)c34)C2)c(O)cc1O is at least 50%.
0 (no)

Dear colleague, could you confirm whether CC(C)c1cc(C(=O)N2CCc3c(sc4nc(N5CCOCC5)nc(NC5CCOCC5)c34)C2)c(O)cc1O has inhibition at or above 50%?
0 (no)

State whether the measured inhibition reaches 50%, counting equality as reaching it, for CC(C)c1cc(C(=O)N2CCc3c(sc4nc(-c5ccc(NC(=O)N6CCOCC6)cc5)nc(N5CCOCC5)c34)C2)c(O)cc1O
1 (yes)

Quick check, inhibition >= 50%? CN1CCc2c(sc3nc(-c4ccncc4)nc(N4CCOCC4)c23)C1
0 (no)

Quick check, inhibition >= 50%? CC(C)c1cc(C(=O)N2CCc3c(sc4nc(N5CCOCC5)nc(N5CCOCC5)c34)C2)c(O)cc1O
1 (yes)

Is the recorded value of inhibition equal to or greater than 50% for this molecule? CC(C)c1cc(C(=O)N2CCc3c(sc4nc(N5CCN(C)CC5)nc(N5CCOCC5)c34)C2)c(O)cc1O
1 (yes)
